Catalogue of activity change, negative = cytotoxicity values
Assay: Cell Viability - Mesenchymal (AID 546);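 also: cells exposed to compound for 40 hours before reading; 0% = DMSO only and -100% = 100 µM tamoxifen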
Settings: mesenchymal cells viability, qHTS; at 91.7 µM (top of the series)
Results filed as inconclusive are left out.
Answer in %, number only, no unit symbol.

Study these solved cases before continuing.
1. C1OCOCO1 ... -5.36
2. O=C(/C=C/c1ccc(O)c(O)c1)O[C@@H](C(=O)O)[C@@H](OC(=O)/C=C/c1ccc(O)c(O)c1)C(=O)O ... 11
3. Cc1ccc([N+](=O)[O-])c(C)c1 ... 1.9
4. O=C1CCc2ccccc2O1 ... 7.71
5. CCCN(CCC)C(=O)SCC ... 5.65
6. CC12CCC(CC1=O)C2(C)C (configuration not stated) ... -11.1
7. O=C(O)CC(C(=O)O)C(CC(=O)O)C(=O)O (configuration not stated) ... -11.1
8. C/C=C\c1ccc(OC)cc1 ... -1.47
9. Clc1cc(Cl)c(Cl)cc1Cl ... 9.51
10. O=S(=O)(O)c1ccccc1 ... 0.153

Q: Need activity change, negative = cytotoxicity, item c1ccc2scnc2c1
Ans: -5.46

Q: Next up: CC1=C2[C@H](/C=C(\C)C(=O)O)CC[C@@H](C)[C@H]2CC1
Ans: 9.76
